Assignment: determine reported A1 pKi for the given compounds.
Molecular target: human adenosine A1 receptor (Homo sapiens (Human), UniProt P30542)
Sequence (P30542 whole entry): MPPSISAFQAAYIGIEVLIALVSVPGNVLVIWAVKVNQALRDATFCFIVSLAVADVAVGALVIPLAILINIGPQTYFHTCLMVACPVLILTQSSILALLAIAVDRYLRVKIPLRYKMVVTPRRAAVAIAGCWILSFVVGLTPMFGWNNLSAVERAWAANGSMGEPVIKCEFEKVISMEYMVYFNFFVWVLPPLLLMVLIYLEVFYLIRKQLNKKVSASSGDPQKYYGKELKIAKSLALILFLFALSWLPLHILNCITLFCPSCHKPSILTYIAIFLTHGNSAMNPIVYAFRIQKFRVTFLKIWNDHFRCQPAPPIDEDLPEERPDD
Experiment: Adenosine receptor inhibition binding assay, [3H]DPCPX, A1 receptor membranes
Conditions: 1 nM [3H]DPCPX, 25° C., 1 h; Ki from IC50 by Cheng-Prusoff
Numbers only.

[[record]]
compound = "Cn1ccnc1Cn1nc2c(-c3cc(Cl)nc(CO)c3)c(-c3ccc(F)cc3)nc(N)n2c1=O"
observed_measurement = 7.1

[[record]]
compound = "Cc1cc(-c2c(-c3ccccc3)nc(N)n3c(=O)n(Cc4ncoc4C)nc23)cc(CO)n1"
observed_measurement = 6.8

[[record]]
compound = "Cc1cc(-c2c(-c3ccccc3)nc(N)n3c(=O)n(C[C@H]4CC(F)(F)CN4)nc23)cc(C)n1"
observed_measurement = 6.4


Give A1 pKi for each of the items listed below.
1. Cc1cc(-c2c(-c3ccccc3)nc(N)n3c(=O)n(Cc4nncn4C)nc23)cc(C)n1
2. Cc1cc(-c2c(-c3ccccc3)nc(N)n3c(=O)n(C[C@H]4C[C@@H](O)CN4)nc23)cc(C)n1
3. Cc1cc(-c2c(-c3ccccc3)nc(N)n3c(=O)n(Cc4nonc4C)nc23)cc(CO)n1
4. Cc1cc(-c2c(-c3ccc(F)cc3)nc(N)n3c(=O)n(Cc4ccn(C)n4)nc23)cc(CO)n1
5. Cc1cc(-c2c(-c3ccccc3)nc(N)n3c(=O)n(C4CCNC4)nc23)cc(C)n1 (stereo not drawn)
6. Cc1nc(Cn2nc3c(-c4cc(C)[n+]([O-])c(C)c4)c(-c4ccc(F)cc4)nc(N)n3c2=O)c(C)o1
7. Cc1cc(-c2c(-c3ccccc3)nc(N)n3c(=O)n(Cc4cocn4)nc23)cc(CO)n1
8. Cc1cc(-c2c(-c3ccccc3)nc(N)n3c(=O)n(Cc4ncco4)nc23)cc(C)n1

1: 6.5; 2: 5.9; 3: 6.4; 4: 6.7; 5: 5.7; 6: 7.4; 7: 6.7; 8: 7.0

----------
Target: UniProt P29274
Experiment: Adenosine receptor inhibition binding assay, [3H]ZM241385, HEK293 A2A receptor membranes
Conditions: 1 nM [3H]ZM241385, HEK293-hA2A membranes, 25° C., 1 h; Ki from IC50 by Cheng-Prusoff; read-out: A2A pKi (converted)
Assignment: determine reported Ki for the given compounds.
Could you give the number and then its unit, please?

[[record]]
molecule_smiles = "[2H]c1c([2H])c([2H])c(-c2nc(N)n3c(=O)n(Cc4ncoc4C)nc3c2-c2cc(CO)nc(OC)c2)c([2H])c1[2H]"
reported_metric = "Ki"
observed_measurement = "0.0794 nM"

[[record]]
molecule_smiles = "[2H]c1c([2H])c([2H])c(-c2nc(N)n3c(=O)n(Cc4nccn4C)nc3c2-c2cc(Cl)nc(CO)c2)c([2H])c1[2H]"
reported_metric = "Ki"
observed_measurement = "0.158 nM"


Kindly consider the entry below.
Param readout= Ki; system= UniProt P29274; entry= `[2H]c1c([2H])c([2H])c(-c2nc(N)n3c(=O)n(Cc4ncoc4C)nc3c2-c2cc(Cl)nc(CO)c2)c([2H])c1[2H]` ; returns value.
0.1 nM

----------
Target: human adenosine A2A receptor (Homo sapiens (Human))
Sequence (P29274 whole entry): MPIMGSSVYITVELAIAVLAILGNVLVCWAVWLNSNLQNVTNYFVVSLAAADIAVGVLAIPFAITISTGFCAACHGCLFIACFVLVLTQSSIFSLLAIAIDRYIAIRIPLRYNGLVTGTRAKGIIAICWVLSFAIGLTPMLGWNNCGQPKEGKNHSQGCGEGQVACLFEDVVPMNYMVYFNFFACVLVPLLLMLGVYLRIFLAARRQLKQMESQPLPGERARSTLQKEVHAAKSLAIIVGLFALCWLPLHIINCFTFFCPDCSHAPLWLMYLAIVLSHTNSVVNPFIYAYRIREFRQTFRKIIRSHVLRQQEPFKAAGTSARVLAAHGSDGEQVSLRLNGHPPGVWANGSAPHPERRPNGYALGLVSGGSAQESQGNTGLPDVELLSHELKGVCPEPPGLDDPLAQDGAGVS
Test: Adenosine receptor inhibition binding assay, [3H]ZM241385, HEK293 A2A receptor membranes
Conditions: 1 nM [3H]ZM241385, HEK293-hA2A membranes, 25° C., 1 h; Ki from IC50 by Cheng-Prusoff
Assignment: determine reported A2A pKi for the given compounds.
Give bare numbers.

Please review the entries below; each comes with its answer.
[[record]]
molecule_smiles = "Cc1cc(-c2c(-c3ccccc3)nc(N)n3c(=O)n(C[C@@H]4CC(F)(F)CN4C)nc23)cc(C)n1"
reported_metric = "A2A pKi"
observed_measurement = 8.2

[[record]]
molecule_smiles = "Cc1cc(-c2c(-c3ccc(F)cc3)nc(N)n3c(=O)n(Cc4ncoc4C)nc23)cc(CO)n1"
reported_metric = "A2A pKi"
observed_measurement = 9.4

[[record]]
molecule_smiles = "COc1cc(-c2c(-c3ccc(F)cc3)nc(N)n3c(=O)n(C[C@H]4CCCO4)nc23)cc(CO)n1"
reported_metric = "A2A pKi"
observed_measurement = 9.0


Sample `Cc1cc(-c2c(-c3ccccc3)nc(N)n3c(=O)n(Cc4ccn(C)n4)nc23)cc(C)n1` — what was its A2A pKi?
9.4

Attribution: patent US20230271964A1
